This section presents molecules with their documented inhibition values.
TEST SYSTEM: Sodium channel protein type 9 subunit alpha (Homo sapiens)
Sequence (Q15858 whole entry, looked up): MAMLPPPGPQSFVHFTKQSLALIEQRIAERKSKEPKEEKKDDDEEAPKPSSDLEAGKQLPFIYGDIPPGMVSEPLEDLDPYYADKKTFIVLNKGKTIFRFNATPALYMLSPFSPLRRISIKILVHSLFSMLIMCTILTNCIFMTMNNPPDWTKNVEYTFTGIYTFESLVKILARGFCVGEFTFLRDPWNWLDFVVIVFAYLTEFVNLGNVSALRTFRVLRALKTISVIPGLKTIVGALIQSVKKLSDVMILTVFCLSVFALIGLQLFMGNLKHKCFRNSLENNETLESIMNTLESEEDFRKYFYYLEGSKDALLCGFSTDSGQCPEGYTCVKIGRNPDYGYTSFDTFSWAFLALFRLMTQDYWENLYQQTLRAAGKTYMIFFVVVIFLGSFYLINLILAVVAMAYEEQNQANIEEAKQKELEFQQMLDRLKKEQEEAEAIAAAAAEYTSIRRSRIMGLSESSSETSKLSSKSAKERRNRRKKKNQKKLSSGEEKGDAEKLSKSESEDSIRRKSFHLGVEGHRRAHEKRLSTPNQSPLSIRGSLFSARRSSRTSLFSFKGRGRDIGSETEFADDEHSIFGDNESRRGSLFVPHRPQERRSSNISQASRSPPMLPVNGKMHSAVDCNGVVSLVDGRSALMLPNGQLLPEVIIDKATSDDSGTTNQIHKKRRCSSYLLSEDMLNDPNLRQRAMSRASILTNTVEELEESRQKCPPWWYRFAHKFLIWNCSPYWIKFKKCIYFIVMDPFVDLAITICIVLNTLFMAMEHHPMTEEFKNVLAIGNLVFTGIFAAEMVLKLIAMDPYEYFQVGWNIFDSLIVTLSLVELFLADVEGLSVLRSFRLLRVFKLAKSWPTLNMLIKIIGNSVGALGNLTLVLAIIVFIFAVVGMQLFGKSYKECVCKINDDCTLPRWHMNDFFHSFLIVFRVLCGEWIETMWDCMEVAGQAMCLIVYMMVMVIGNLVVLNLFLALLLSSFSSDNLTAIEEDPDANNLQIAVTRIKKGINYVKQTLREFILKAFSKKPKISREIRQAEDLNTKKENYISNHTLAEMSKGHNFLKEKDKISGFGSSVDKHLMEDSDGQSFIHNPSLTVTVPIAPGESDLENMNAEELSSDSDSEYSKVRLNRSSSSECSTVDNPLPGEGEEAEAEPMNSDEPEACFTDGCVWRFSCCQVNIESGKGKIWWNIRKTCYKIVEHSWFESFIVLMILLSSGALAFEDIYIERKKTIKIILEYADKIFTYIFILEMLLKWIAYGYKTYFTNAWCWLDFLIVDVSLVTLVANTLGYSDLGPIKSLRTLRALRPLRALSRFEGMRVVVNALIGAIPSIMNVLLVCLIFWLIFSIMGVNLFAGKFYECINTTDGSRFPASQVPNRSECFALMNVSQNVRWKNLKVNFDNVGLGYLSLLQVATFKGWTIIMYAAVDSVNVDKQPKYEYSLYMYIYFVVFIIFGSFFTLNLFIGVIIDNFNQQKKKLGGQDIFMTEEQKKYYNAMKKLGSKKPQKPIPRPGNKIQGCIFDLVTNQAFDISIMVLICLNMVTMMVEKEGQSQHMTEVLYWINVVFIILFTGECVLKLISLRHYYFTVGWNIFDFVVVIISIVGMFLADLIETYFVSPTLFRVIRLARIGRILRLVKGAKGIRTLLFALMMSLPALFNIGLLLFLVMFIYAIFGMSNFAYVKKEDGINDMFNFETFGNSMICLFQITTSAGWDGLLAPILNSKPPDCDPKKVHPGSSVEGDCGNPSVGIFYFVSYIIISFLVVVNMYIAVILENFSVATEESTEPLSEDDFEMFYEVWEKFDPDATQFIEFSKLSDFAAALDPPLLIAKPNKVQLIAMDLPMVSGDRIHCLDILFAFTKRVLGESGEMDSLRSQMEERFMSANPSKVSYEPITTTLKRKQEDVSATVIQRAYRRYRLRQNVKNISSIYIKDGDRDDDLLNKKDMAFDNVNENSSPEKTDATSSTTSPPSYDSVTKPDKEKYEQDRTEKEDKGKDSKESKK
ASSAY DETAILS: Inhibition of human Nav1.7 channel expressed in HEK293 cells at 1 uM by FRET assay
Type: cell-based
Write down the numeric answer in % and omit the unit.

MOLECULE: O=C(NC1(c2ccccc2)CCC1)[C@@H]1CCC[C@H]1c1cc(-c2c(O)cccc2C(F)(F)F)on1
MEASURED ENDPOINT: inhibition
MEASUREMENT: 1

Determine its reported inhibition: `O=C(NC1(c2ccccc2)CCC1)[C@@H]1CCC[C@H]1c1cc(-c2ccc(O)c(C(F)(F)F)c2)on1`
0

Determine its reported inhibition: CC1(c2ccccc2)CC([C@@H]2CCC[C@H]2C(=O)NC2(c3ccccc3)CCC2)=NO1 (some centres undefined)
8

Determine its reported inhibition: `O=C(NC1(c2ccccc2)CCC1)[C@@H]1CCC[C@H]1c1cc(-c2cc(C(F)(F)F)ccc2O)on1`
1
